The values you see were collected from patent US8338565B2.

- system-tested: TNFα / TNFα receptor (TNFα R1/Fc) (Homo sapiens)
- Construct: purchased R&D Systems
- Sequence (P01375 77-233 limits assumed, species assumed): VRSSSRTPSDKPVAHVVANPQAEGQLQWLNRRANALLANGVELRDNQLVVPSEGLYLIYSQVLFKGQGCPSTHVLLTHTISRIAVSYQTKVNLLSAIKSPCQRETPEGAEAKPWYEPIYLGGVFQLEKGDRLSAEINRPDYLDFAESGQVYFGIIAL
- test-details: Inhibition of binding of TNFα to the TNFα receptor (plate ELISA competition)
- condition-context: Table 2; read-out: Activity (IC50, inhibition of TNFα binding to TNFα R1/Fc)
- Procedure: The compounds listed in Table 2 below were assayed for ability to inhibit binding of TNFα to the TNFα receptor (TNFα R1/Fc). The assays were performed as described in the following procedure: TNFα (R&D Systems) was coated on high binding plate wells (Corning 96-well) at a single uniform concentration of 15 nM, 100 μL/well in PBS. […] The TMB reaction was stopped with the addition of 0.5N HCl and then the plate was read for absorbance at 450 nm.
Numbered stars: 1 amine (or outer) side, 2 acyl side, 3 side chain; on linkers, the order of the positions; unused ones are H or OH. Bridge positions count the residues as written; N and C are the ends. Square brackets hold non-standard residues; d marks the D form. Peptide text beside a SMILES is read from it. Phe(4-CF3) = N[C@@H](Cc1ccc(C(F)(F)F)cc1)C(=O)O; dPhe(4-NH2) = Nc1ccc(C[C@@H](N)C(=O)O)cc1; d(hPhe) = N[C@H](CCc1ccccc1)C(=O)O; Suc = O=C(CCC(=O)[*:2])[*:1]; Ac3c = NC1(C(=O)O)CC1
Items are presented alongside their recorded IC50.
measure: IC50

| compound | measure | recorded-result |
| --- | --- | --- |
| O=C(O)CNC(=O)[C@@H]1Cc2ccc(cc2)OCC(=O)N[C@@H](Cc2cccs2)C(=O)N[C@@H](Cc2ccc(-c3ccccc3)cc2)C(=O)N[C@@H](Cc2ccccc2)C(=O)N1 | IC50 | < 10 µM |
| O=C1CCC(=O)N[C@H](CCc2ccccc2)C(=O)N[C@@H](Cc2ccc(C(F)(F)F)cc2)C(=O)N[C@H](Cc2ccccc2)C(=O)N[C@@H](C(=O)NC2(C(=O)O)CC2)Cc2ccc(cc2)N1 [Compound 17] ([d(hPhe)][Phe(4-CF3)][dF][dPhe(4-NH2)][Ac3c]-OH; linker N-4 via Suc) | IC50 | 10 to 30 µM |
